Reference for the values: ChEMBL document CHEMBL1149064

Biological target: Tyrosinase (Agaricus bisporus)
Test: Inhibition of mushroom tyrosinase assessed as oxidation of L-DOPA at 0.8 mM
Listing of entries alongside the reported inhibition.
Number only, in %; omit the unit.

- compound: "C=CC/C=C\\C/C=C\\CCCCCCCc1cc(O)c(C)c(O)c1"
  result.unit: "%"
  inhibition: 16
- compound: "C=CC/C=C\\C/C=C\\CCCCCCCc1cc(O)cc(O)c1"
  result.unit: "%"
  inhibition: 88
- compound: "O=C(O)c1ccccc1O"
  result.unit: "%"
  inhibition: 23
- compound: "CCC/C=C\\C/C=C\\CCCCCCCc1cccc(O)c1C(=O)O"
  result.unit: "%"
  inhibition: 15
- compound: "CCC/C=C\\C/C=C\\CCCCCCCc1cc(O)c(C)c(O)c1"
  result.unit: "%"
  inhibition: 20
- compound: "Oc1cccc(O)c1"
  result.unit: "%"
  inhibition: 34

Query: Form entry - test system: Tyrosinase (Agaricus bisporus); read-out: inhibition; compound: C=CC/C=C\C/C=C\CCCCCCCc1cccc(O)c1C(=O)O (stereo in doubt; 8)
Reply: 15

Query: Now the compound `CCCCCCCCCCCCCCCc1cc(O)cc(O)c1`
Reply: 21

Query: Now the compound `CCCCCC/C=C\CCCCCCCc1cccc(O)c1C(=O)O`
Reply: 15

Query: Now the compound C=CC/C=C\C/C=C\CCCCCCCc1cccc(O)c1C(=O)O (stereo in doubt; 5)
Reply: 45

Query: Now the compound `CCCCCC/C=C\CCCCCCCc1cc(O)c(C)c(O)c1`
Reply: 24
